System: B-cell
Assay: Immunostimulant activity in Balb/c mouse B cells assessed as LPS-induced cell proliferation at 10 uM after 48 hrs by MTT assay relative to control
Format: ADME, cell-based

compound	unit_descriptor	Activity
Cc1cc(O)c(C)c2c1CC[C@@H]([C@@H](C)C(=O)Nc1nccc(C)c1[N+](=O)[O-])C2	%	64.67
Cc1cc(O)c(C)c2c1CCC1C2OC(O)C1C (stereo not given)	%	9.73
Cc1cc(O)c(C)c2c1CCC(C(C)CO)C2O (stereo not given)	%	8.54
COc1cccc(NC(=O)[C@H](C)[C@@H]2CCc3c(C)cc(O)c(C)c3C2)c1	%	3.98
Cc1cc(O)c(C)c2c1CC[C@@H]([C@@H](C)C(=O)N1CCOCC1)C2	%	14.92

###

Test system: B-cell
Assay: Cytotoxicity against Balb/c mouse B cells assessed as reduction in cell proliferation at 1 uM after 48 hrs by MTT assay
Format: cell-based
outcome_measure: Activity

molecule	observed_measurement
CCOC(=O)[C@H](C)c1ccc2c(C)cc(O)c(C=O)c2c1	Toxic
CC(=O)OC1=C(C)C2=C3OC(=O)C(C)=C3CC[C@@]2(C)CC1	Toxic
Cc1cc(O)c(C)c2c1CCC(C(C)CO)C2O (stereo not given)	Toxic
Cc1cc(O)c(C)c2c1CC[C@@H]([C@@H](C)C(=O)Nc1nccc(C)c1[N+](=O)[O-])C2	Toxic
CCOC(=O)[C@H](C)c1ccc2c(C)cc(O)c(C)c2c1	Toxic
Cc1ccc(NC(=O)[C@H](C)[C@@H]2CCc3c(C)cc(O)c(C)c3C2)cc1O	Non-Toxic
CC1=C(Cl)C=C[C@]2(C)CC[C@@H]3C(=C12)OC(=O)[C@H]3C	Toxic
CC(=O)OCC(C)C1CCc2c(C)cc(OC(C)=O)c(C)c2C1O (stereo not given)	Toxic
COc1cccc(NC(=O)[C@H](C)[C@@H]2CCc3c(C)cc(O)c(C)c3C2)c1	Toxic
Cc1cc(O)c(C)c2c1CC[C@@H]([C@@H](C)C(=O)N1CCOCC1)C2	Non-Toxic

###

Each entry below carries its reported inhibition.
Target: Tumor necrosis factor (Homo sapiens)
Assay: Inhibition of TNFalpha (unknown origin) at 10 uM relative to control

compound	inhibition
CC(=O)OC1=C(C)C2=C3OC(=O)C(C)=C3CC[C@@]2(C)CC1	44.9%
CC1=C2[C@H]3OC(=O)[C@@H](C)[C@@H]3CC[C@@]2(C)C=CC1=O	19%
Cc1cc(O)c(C)c2c1CC[C@@H]([C@@H](C)C(=O)Nc1ccc(CC#N)cc1)C2	17.1%
CC(=O)Oc1cc(C)c2c(c1C)C1OC(OC(C)=O)C(C)C1CC2 (centres undefined)	26%

###

Target: Tumor necrosis factor (Homo sapiens)
Experiment: Inhibition of TNFalpha (unknown origin) at 5 uM relative to control
Each entry below carries its reported inhibition.

molecule	inhibition [%]
CC(=O)OC1=C(C)C2=C3OC(=O)C(C)=C3CC[C@@]2(C)CC1	24.1
CC1=C2[C@H]3OC(=O)[C@@H](C)[C@@H]3CC[C@@]2(C)C=CC1=O [SANTONIN]	6.2
CC(=O)Oc1cc(C)c2c(c1C)C1OC(OC(C)=O)C(C)C1CC2 (centres undefined)	9.9
Cc1cc(O)c(C)c2c1CC[C@@H]([C@@H](C)C(=O)Nc1ccc(CC#N)cc1)C2	4.5
